B1: TPR 5TU (parent)
chain: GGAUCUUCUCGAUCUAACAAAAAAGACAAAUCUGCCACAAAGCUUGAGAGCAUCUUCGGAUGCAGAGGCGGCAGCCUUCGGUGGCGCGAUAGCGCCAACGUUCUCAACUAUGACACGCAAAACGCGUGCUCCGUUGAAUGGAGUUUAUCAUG

# Variants of: B1
# test: polymerase ribozyme fitness, log enrichment relative to wild type (log ratio); higher = more active; in vitro selection for triplet polymerase activity
Fewer inactive variants are shown than the library holds.
assay-endpoint: polymerase ribozyme fitness (log ratio)
Please respond with just the number, no unit label.

These solved cases illustrate the format of a correct answer.
A12U G84C A142G : -3.93
U45G G152A : -1.18
C5G G46A G92C : -4.13
C54U C57U G83C : -1.34
C87U C114G : -2.79
C38G A40G G83A : -3.86
U6A C57G C105U : 0.464
A30G G141C : -3.51

polymerase ribozyme fitness (log ratio) measured on U6A C35A U104C = -3.88

The value of polymerase ribozyme fitness (log ratio) measured for the variant A39G A41G A49G G83C U145A turned out to be -3.94

A20C C35U A97G has a reported polymerase ribozyme fitness (log ratio) of -0.284

# variant A41G U78C C116G ; its polymerase ribozyme fitness (log ratio) = 0.0342
